measurementProtocol: Hepatobiliary transport study in rats
Format: in vivo, Sprague-Dawley rats
appliedConditions: Sprague-Dawley, rat, plasma, iv, 5 mg/kg, i.v. RSV 5 mg/kg, with DDI (multiple p.o. CP 27 mg/kg), read-out: Plasma AUC0-5min (converted)
observedProperty: AUC(0-t) (ng·h/mL)
The reply should be a number in ng·h/mL, with the unit left off.

// sample CC(C)c1nc(N(C)S(C)(=O)=O)nc(-c2ccc(F)cc2)c1/C=C/[C@@H](O)C[C@@H](O)CC(=O)O , its AUC(0-t) was 1710

###

measurementProtocol: Cytotoxicity (MTT, AST, LDH) in cryopreserved human hepatocytes
Assay type: cell-based
appliedConditions: human, cryopreserved primary human hepatocytes; 96 h incubation
Description: Cytotoxicity was determined with MTT assay in cryopreserved human hepatocytes. Thawing and plating of cryopreserved hepatocytes were carried out according to the manufacturer’s protocol. […] The absorbance at 570 nm was measured and corrected for background absorption at 690 nm using a SpectraMax® i3 plate reader (Molecular Devices, Silicon Valley, CA, United States). AST and LDH levels in the medium of parallel processed plates were measured by commercially available assay kits. […]
observedProperty: IC50 at 96 h (µM)
The reply should be a number in µM, with the unit left off.

// sample CC(C)c1nc(N(C)S(C)(=O)=O)nc(-c2ccc(F)cc2)c1/C=C/[C@@H](O)C[C@@H](O)CC(=O)O [RSV, rosuvastatin] , its IC50 at 96 h was 14.8

Values compiled from paper PMC8504577.
